# target.of.assay: PTPN3, P26045
# Sequence (P26045 505-587): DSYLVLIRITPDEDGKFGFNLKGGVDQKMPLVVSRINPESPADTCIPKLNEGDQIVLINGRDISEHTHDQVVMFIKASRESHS
# experiment.summary: holdup assay
# Parameters: key: below the threshold = too weak to quantify, mostly under pKd 3.1 to 4
# condition.set: plain residues with an end cap or a label only (N-terminal biotin on a linker: ado-ado)

| binder | pKd |
| --- | --- |
| KRPEMTSSSV [MUC3B, MUC3A, Q02505;Q9H195] | 4.55 |
| DGVNEKVSCV [HTR2A, P28223] | 4.86 |
| PPGKHLVTEV [KCNA7, Q96RP8] | 4.74 |
| NTANRRTTPV [CACNG2, Q9Y698] | 4.52 |
| STKRKLASAV [NCF1, P14598] | 3.95 |
| ELSATVTTDC [TRIP6, Q15654] | 4.31 |
| REEPDHSTEV [CCRL2, O00421] | 4.79 |
| VKRNSKETVV [MARCHF3, Q86UD3] | 4.79 |
| NTLNRKTTPV [CACNG8, Q8WXS5] | 4.98 |
| SPDRDRESIV [SCN5A, Q14524] | 4.78 |
| QKAPTKEFYA [SDC2, P34741] | 4.2 |
| QLSFNTDTLC [ABCA2, Q9BZC7] | 4.09 |
| PYSESDDDWC [CACNA1A, O00555] | 4.15 |
| EDGESWEYQI [TRPV6, Q9H1D0] | 4.13 |

// data source = paper PMC9482650
